Some molecules, each annotated with its measured pIC50.
Molecular target: human CB2 receptor (Homo sapiens, UniProt P34972)
Sequence (P34972 whole entry): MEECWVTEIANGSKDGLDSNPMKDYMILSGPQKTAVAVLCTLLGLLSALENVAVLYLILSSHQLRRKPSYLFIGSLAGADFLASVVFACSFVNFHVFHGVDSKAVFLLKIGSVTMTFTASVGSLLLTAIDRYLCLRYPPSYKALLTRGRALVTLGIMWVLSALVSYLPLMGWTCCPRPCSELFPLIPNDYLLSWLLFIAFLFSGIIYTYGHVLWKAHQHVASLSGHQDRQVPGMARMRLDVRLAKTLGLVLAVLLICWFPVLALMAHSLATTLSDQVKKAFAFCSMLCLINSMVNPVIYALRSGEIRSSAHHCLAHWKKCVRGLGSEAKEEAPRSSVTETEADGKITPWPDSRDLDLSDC
Experiment: Binding assay, cannabinoid CB2 receptor ([3H]-CP-55,940 displacement)
Details: Cannabinoid CB2 Receptor Binding IC50, human CB2 receptor, SK-N-MC cell membranes, radioligand CP-55,940 0.2 nM
Kindly note that pIC50 refers to -log10 of the concentration in mol/L and answer with the value alone.

1) O=C(NN1CCCCCC1)c1nn(-c2ccc(F)cc2)c2c1CCCC2 :: 7.03
2) CC(NC(=O)c1nn(C2CCCCC2)c2c1CC(C(=O)O)CC2)C12CC3CC(CC(C3)C1)C2 (centres unmarked) :: 5.87
3) CCOC(=O)[C@H]1CCc2c(c(C(=O)NC3C4CC5CC(C4)CC3C5)nn2Cc2ccccc2)C1 (some centres unmarked) :: 8.10
4) CC12CCC(C1)C(C)(C)C2NC(=O)c1nn(-c2ccc(F)cc2)c2c1CCCC2c1ccccc1 (centres unmarked) :: 7.40
5) O=C(NN1CCCCCC1)c1nn(C2CCCCC2)c2c1CCCC2 :: 6.95
6) C[C@H](NC(=O)c1nn(-c2ccc(Cl)cc2Cl)c2c1CCCC2=Cc1ccc(Cl)cc1)C1CCCCC1 :: 6.22
7) CCOC(=O)[C@H]1C2C=CC(C2)[C@H]1NC(=O)c1nn(Cc2ccccc2)c2c1CCCC2 (some centres unmarked) :: 6.60

API: the following record is the query input.
Query string: Name the reported pIC50 value associated with the molecule O=C(NCc1cccnc1)c1nn(C2CCCCC2)c2c1CCCC2
Result string: 6.28
